Listed compounds paired with reported Ki
target: UniProt P29274
Sequence (P29274 whole entry): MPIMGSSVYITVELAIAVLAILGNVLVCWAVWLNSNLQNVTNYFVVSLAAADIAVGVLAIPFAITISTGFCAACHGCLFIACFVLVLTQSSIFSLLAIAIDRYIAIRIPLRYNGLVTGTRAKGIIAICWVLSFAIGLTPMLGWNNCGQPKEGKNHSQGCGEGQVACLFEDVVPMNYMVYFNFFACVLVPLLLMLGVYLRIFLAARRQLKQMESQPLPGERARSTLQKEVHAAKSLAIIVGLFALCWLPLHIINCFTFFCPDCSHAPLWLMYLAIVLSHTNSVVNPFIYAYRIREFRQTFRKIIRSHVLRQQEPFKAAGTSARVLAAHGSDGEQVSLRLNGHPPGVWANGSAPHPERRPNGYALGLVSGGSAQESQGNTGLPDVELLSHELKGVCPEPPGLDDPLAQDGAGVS

- O=C(Cn1cc(-c2ccccc2)c2ncn(C3CC3)c(=O)c21)NCc1ccc(F)cc1: 36.3 µM
- Cc1ccc(C(=O)Nc2c(C(=O)NC3CCCC3)[nH]c3ccc(C)cc23)cc1: > 100 µM

The reported value for C=CCn1c(SCc2ccccn2)nc2c([nH]c3ccccc32)c1=O in terms of Ki is > 100 µM

Ki recorded for this compound, O=c1[nH]c(N2CCCC2)nc2nccc(-c3ccc(Cl)cc3)c12 , is > 100 µM

###

target: Adenosine receptor A1 (Homo sapiens, UniProt P30542)
Sequence (P30542 whole entry): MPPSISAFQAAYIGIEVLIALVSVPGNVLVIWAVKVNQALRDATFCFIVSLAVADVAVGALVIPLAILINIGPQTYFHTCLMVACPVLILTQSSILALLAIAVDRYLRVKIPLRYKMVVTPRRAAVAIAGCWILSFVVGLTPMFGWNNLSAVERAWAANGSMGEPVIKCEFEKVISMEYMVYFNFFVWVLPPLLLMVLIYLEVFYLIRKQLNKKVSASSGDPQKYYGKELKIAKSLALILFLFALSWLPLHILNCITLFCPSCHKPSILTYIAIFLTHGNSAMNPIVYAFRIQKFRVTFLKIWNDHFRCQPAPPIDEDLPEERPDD
experimentalProtocol: Antagonist activity at human A1AR expressed in CHO-K1 cells assessed as reduction in NECA-induced inhibition of forskolin-stimulated cAMP accumulation incubated for 30 mins by fluorescence based assay
valueKind: IC50 (nM)

• O=c1[nH]c(N2CCCC2)nc2nccc(-c3ccc(Cl)cc3)c12 = 1480
• N#Cc1c(N)nc2c(c1-c1ccc3c(c1)OCO3)CCCC2 = 417
• C=CCn1c(SCc2ccccn2)nc2c([nH]c3ccccc32)c1=O = 1260
• Cc1ccc(C(=O)Nc2c(C(=O)NC3CCCC3)[nH]c3ccc(C)cc23)cc1 = 3090

I: O=C(Cn1cc(-c2ccccc2)c2ncn(C3CC3)c(=O)c21)NCc1ccc(F)cc1
II: COc1ccc(-c2cc(-c3cccc(Br)c3)c(C#N)c(N)n2)cc1
### Prompt Just tell me: smaller IC50 value, I or II ? In your reply, give the label of the chosen option.
### Response II
